test.context: human gut metagenome, 24 h, 2 µM; note: call rule not given here
measurement.kind: Bacterial Biotransformation

Please review the entries below; each comes with its answer.
>>> recorded_value("C[C@]12C=CC(=O)C=C1CC[C@@H]1[C@@H]2C(=O)C[C@@]2(C)[C@H]1CC[C@]2(O)C(=O)CO")
"Compound metabolized"
>>> recorded_value("CC1=C(CC(=O)O)c2cc(F)ccc2/C1=C\\c1ccc([S+](C)[O-])cc1 (stereo not drawn)")
"Compound metabolized"
>>> recorded_value("C[C@@H](c1ncncc1F)[C@](O)(Cn1cncn1)c1ccc(F)cc1F")
"Compound metabolized"
>>> recorded_value("N#Cc1ccc2[nH]cc(CCCCN3CCN(c4ccc5oc(C(N)=O)cc5c4)CC3)c2c1")
"Compound metabolized"

Give the measured Bacterial Biotransformation of CCc1cccc2c3c([nH]c12)C(CC)(CC(=O)O)OCC3 (stereo not drawn) . Compound metabolized

State the recorded Bacterial Biotransformation for this entry: "COc1ccc2c(c1)c(CC(=O)O)c(C)n2C(=O)c1ccc(Cl)cc1" Compound metabolized

So what's the measured Bacterial Biotransformation for this one? CC(=O)OCC(=O)[C@@]1(OC(C)=O)[C@@H](C)C[C@H]2[C@@H]3C[C@H](F)C4=CC(=O)C=C[C@]4(C)[C@@]3(F)[C@@H](O)C[C@@]21C [DIFLORASONE DIACETATE] Compound metabolized

These measurements were taken from ChEMBL document CHEMBL5724914.
